Source: patent US10760052B2

TARGET UNDER TEST: mu opiate receptor (MOR) (Rattus norvegicus)
Construct: from tissue; host or cells: striatum (membrane preparation)
Sequence (P33535 whole entry): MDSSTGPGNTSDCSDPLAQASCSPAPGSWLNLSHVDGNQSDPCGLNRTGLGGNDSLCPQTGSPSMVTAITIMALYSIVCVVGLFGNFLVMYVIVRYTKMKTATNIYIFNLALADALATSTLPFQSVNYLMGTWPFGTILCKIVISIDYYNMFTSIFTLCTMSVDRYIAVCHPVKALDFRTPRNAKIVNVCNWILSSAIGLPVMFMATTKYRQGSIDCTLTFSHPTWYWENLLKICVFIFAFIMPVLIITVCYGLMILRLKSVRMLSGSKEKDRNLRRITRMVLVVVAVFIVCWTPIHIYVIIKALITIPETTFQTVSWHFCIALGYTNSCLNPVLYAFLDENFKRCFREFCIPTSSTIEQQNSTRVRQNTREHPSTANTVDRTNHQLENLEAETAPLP
Assay type: biochemical
Quick list: % DAMGO + BFNA per entry.
Reply with just the number (in %).

Given O=C1CN(Cc2ccccc2)C2(CCNCC2)N1 [Compound C0115M] , respond with its % DAMGO + BFNA.
249.3

***
Given O=S(=O)(c1cccs1)N1CCC2(CC1)OCCN2S(=O)(=O)c1cccs1 [Compound C0141M] , respond with its % DAMGO + BFNA.
121.9

Given CC1CCC(C(C)C)C(OCC(O)CN2CCCCC2C)C1 (stereo not drawn) [Compound A0007] , respond with its % DAMGO + BFNA.
152.5

Given CC1CCC(C(C)C)C(OCC(O)CN2CCCCC2=O)C1 (stereo not drawn) [Compound A0036] , respond with its % DAMGO + BFNA.
85.5

Given COc1c2c(cc3c1C(CC(=O)CCc1ccccc1)N(C)CC3)OCO2 (stereo not drawn) [Compound B0050] , respond with its % DAMGO + BFNA.
294.0

Given COc1ccc(S(=O)(=O)N2CCC3(CC2)OCCN3S(=O)(=O)c2ccc(OC)c(OC)c2)cc1OC [Compound C0049] , respond with its % DAMGO + BFNA.
184.1

Given COc1ccc(S(=O)(=O)N2CCOC23CCNCC3)cc1 [Compound C0027] , respond with its % DAMGO + BFNA.
164.5

Given CC1CCCC(OCC(O)CN2CC(C)OC(C)C2)C1 (stereo not drawn) [Compound A0021] , respond with its % DAMGO + BFNA.
34.9

Given COCOc1ccc(CCC(=O)CC2c3c(cc4c(c3OC)OCO4)CC[N+]2(C)C)cc1 (stereo not drawn) [Compound B0040] , respond with its % DAMGO + BFNA.
169.6
